tested on: HCC-2998 colon; assay: NCI-60 one-dose screen, 48 h; conditions: 10 µM unless noted
The panel holds about 83,000 compounds, 20% with a hit somewhere; the sample as a whole holds those more often. Activity calls are given as the source filed them. The calls were made as follows: active = growth percent below 10; inactive = the rest.
Could you please pick one outcome from this set? active, inactive

>>> group_label("Cl.[Pt].[c-]1ccccc1-c1ccccn1.c1ccc(P(c2ccccc2)C([PH+](c2ccccc2)c2ccccc2)[PH+](c2ccccc2)c2ccccc2)cc1")
"inactive"
>>> group_label("CCc1nc2ccccc2[nH]1")
"inactive"
>>> group_label("Cc1[nH]c(-c2nc3ccccc3[nH]2)c(C)c1C(=O)NNc1ccc(Cl)cc1")
"inactive"
>>> group_label("CC[C@@H](C[C@H](CCO)c1ccccc1)c1cc2ccccc2o1")
"inactive"
>>> group_label("CCN(CCO)CC(=O)c1cc(Cl)cc(Cl)c1Cl")
"inactive"

Next item in the queue.
Which outcome was entered for the compound `CC(C)n1nc(C#Cc2cccc(O)c2)c2c(N)ncnc21` in this test?
active

* * *

Test system: HCT-15 colon
Assay: NCI-60 one-dose screen, 48 h
Conditions: 10 µM unless noted
Experimental: Growth inhibition of the HCT-15 human tumor cell line is measured as a screen for anti-cancer activity. Cells are grown in 96 well plates and exposed to the test compound for 48 hours. Compounds are tested at a single concentration, which is 10^-5 M for most compounds. The reported endpoint is percent growth (GI% or GIPRCNT), where numbers from 0 - 100% represent growth inhibition, and numbers from -100% - 0 represent cell death. For example, a value of 40 represents 60% growth inhibition. […]
The panel holds about 83,000 compounds, 20% with a hit somewhere; the sample as a whole holds those more often. Active and inactive are the calls of the source. The calls were made as follows: active = growth percent below 10; inactive = the rest.
Could you please pick one outcome from this set? label 1 for active, label 0 for inactive

These recorded examples may help you get a feel for the data.
>>> group_label("CC(=O)OCCc1ccccc1")
"label 0"
>>> group_label("C[C@@H]1C(=O)N(C[C@@H](Cc2ccccc2)NC(=O)OCc2ccccc2)[C@]1(Cc1ccccc1)C(=O)OCc1ccccc1")
"label 0"
>>> group_label("Clc1ccc(/C=N\\N=c2\\scc(-c3ccc(Cl)cc3)n2/N=C/c2ccc(Cl)cc2)cc1")
"label 0"
>>> group_label("COc1ccc(OC)c(C(=O)Nc2cccc(-c3cc(=O)c4ccccc4o3)c2)c1")
"label 0"

Which outcome was entered for the compound COc1cc(C2CC(=O)Nc3n[nH]c(-c4ccccc4)c32)cc(OC)c1OC (stereo not drawn) in this test?
label 0

Which outcome was entered for the compound `CCNCCNc1cc(-c2ccc(Cl)cc2)c(C#N)c2nc3ccccc3n12` in this test?
label 1

Which outcome was entered for the compound CN1C[C@@H](c2ccc(Cl)cc2)[C@]2(NC(=S)N(c3ccccc3)C2=O)[C@@]12C(=O)NC1C=CC(Br)=C[C@H]12 (stereo partly drawn) in this test?
label 0

Which outcome was entered for the compound CCCCOc1nc2ccc(Cl)cc2cc1/C=C/C(=O)/C=C1/CC(c2cc3cc(Cl)ccc3nc2OCCCC)Nc2ccccc2N1 (stereo not drawn) in this test?
label 0

Which outcome was entered for the compound O=C1CSC(c2ccccc2Cl)N1c1nnc(Cn2cnnc2)o1 (stereo not drawn) in this test?
label 0

Which outcome was entered for the compound `CCCNCC(=O)Nc1ccc(C(=O)OC(C)(C)CC)cc1` in this test?
label 0

Which outcome was entered for the compound `NC(=O)c1c(NC(=O)c2ccc(C(F)(F)F)cc2Cl)sc2c1CCC(=O)C2` in this test?
label 1

Which outcome was entered for the compound `Cc1ccc(Nc2ccc(Nc3ccc(C)cc3S(=O)(=O)O)c3c2C(=O)c2ccccc2C3=O)c(S(=O)(=O)O)c1` in this test?
label 0

Which outcome was entered for the compound `Cc1ccc(-n2nnc(C3=NCCc4c3[nH]c3ccc(Cl)cc43)c2C)cc1` in this test?
label 0

Which outcome was entered for the compound `Cc1c(C(N)=O)sc2nc(C)n(/N=c3\scc(-c4ccccc4)n3Cc3ccccc3)c(=O)c12` in this test?
label 0

Which outcome was entered for the compound `COc1ccc(N=c2nc3sc4cc(Cl)ccc4n3c(N)c2C#N)cc1` in this test?
label 0

Which outcome was entered for the compound `C=C(C)[C@@H]1CC[C@]2(CO)CC[C@]3(C)[C@H](CC[C@@H]4[C@@]5(C)C=C(C#N)C(=O)C(C)(C)[C@@H]5CC[C@]43C)[C@@H]12` in this test?
label 1

Which outcome was entered for the compound `C#C[C@]1(O)CC[C@H]2[C@@H]3CC=C4c5sc(N=C(N)N)nc5CC[C@]4(C)[C@H]3CC[C@@]21C` in this test?
label 1

Which outcome was entered for the compound `C=C1C(=O)O[C@H]2[C@H]1CC/C(COC(=O)NCc1ccc(Cn3c(=O)sn(CCCCl)c3=O)cc1)=C\CC[C@@]1(C)O[C@@H]21` in this test?
label 1

Which outcome was entered for the compound `O=C(Oc1ccc[nH]c1=O)c1cc([N+](=O)[O-])cc([N+](=O)[O-])c1` in this test?
label 0

Which outcome was entered for the compound `CC1(C)N=C(N)N=C(N)N1c1ccc(Cl)c(Cl)c1` in this test?
label 0

Which outcome was entered for the compound `O=[N+]([O-])c1cccc(/C=C/c2ccccn2)c1` in this test?
label 0

Which outcome was entered for the compound `CCN1CCN(c2ccc(Nc3cc(-c4cccnc4Nc4c(Cl)c(OC)cc(OC)c4Cl)ncn3)cc2)CC1` in this test?
label 0

Which outcome was entered for the compound `COc1cc(-c2ccc(N=Nc3c(O)c(C(=O)Nc4ccccc4OC)cc4ccccc34)c(OC)c2)ccc1N=Nc1c(O)c(C(=O)Nc2ccccc2OC)cc2ccccc12` in this test?
label 0
